Data credit: patent US20020137929A1

# CHEAL herbicidal rating per record follows
# Tested on: CHEAL (Lambsquarters, Common)
# assayNotes: Postemergence herbicidal evaluation
# Type: in vivo, Chenopodium album
# experimentalContext: postemergence, rate 0.1250 kg/ha
// no unit string in output, number only

# compound, CHEAL herbicidal rating
measured = [
    ("CC1SC(=Nc2cc(-n3c(=O)cc(C(F)(F)F)n(C)c3=O)c(F)cc2Cl)N(C)C1=O (centres unmarked) [Compound 9]", 9.0),
    ("CC1SC(=Nc2cc(N3C(=O)C4=C(CCCC4)C3=O)c(F)cc2Cl)N(C)C1=O (centres unmarked) [Compound 4]", 8.0),
    ("CCOC(=O)CN1C(=O)C(CC(=O)OC(C)C(=O)OCC)S/C1=N/c1cc(-n2c(=O)cc(C(F)(F)F)n(C)c2=O)c(F)cc1Cl (centres unmarked) [Compound 87]", 4.0),
    ("CN1C(=O)CSC1=Nc1cc(N2C(=O)C3=C(CCCC3)C2=O)c(F)cc1Cl [Compound 1]", 9.0),
]

Entry under test: COC(=O)CN1C(=O)CSC1=Nc1cc(-n2c(=O)cc(C(F)(F)F)n(C)c2=O)c(F)cc1Cl [Compound 17] . Its CHEAL herbicidal rating was 8.0

###

# System: CYPSE (Flatsedge)
# assayNotes: Preemergence weed control under flooded paddy conditions
# Format: in vivo, Cyperus serotinus
# experimentalContext: 0.0313 kg/ha, rated 3-4 weeks after treatment
# CYPSE herbicidal effect rating per record follows
// no unit string in output, number only

Past entries and their recorded results:
# compound, measuredTarget, CYPSE herbicidal effect rating
measured = [
    ("COC(=O)[C@H](Cc1ccc([N+](=O)[O-])cc1)N1C(=O)CSC1=Nc1cc(-n2c(=O)cc(C(F)(F)F)n(C)c2=O)c(F)cc1Cl [Compound 78]", "CYPSE (Flatsedge)", 6.0),
    ("CCOC(=O)CN1C(=O)C(CC(=O)NS(=O)(=O)c2ccccc2)SC1=Nc1cc(-n2c(=O)cc(C(F)(F)F)n(C)c2=O)c(F)cc1Cl (stereo not drawn) [Compound 100]", "CYPSE (Flatsedge)", 0.0),
    ("CCOC(=O)CN1C(=O)C(CC(=O)OCCF)SC1=Nc1cc(-n2c(=O)cc(C(F)(F)F)n(C)c2=O)c(F)cc1Cl (stereo not drawn) [Compound 82]", "CYPSE (Flatsedge)", 0.0),
    ("Cn1c(C(F)(F)F)cc(=O)n(-c2cc(N=C3SCC(=O)N3[C@H](Cc3ccccc3)C(=O)O)c(Cl)cc2F)c1=O [Compound 69]", "CYPSE (Flatsedge)", 3.0),
    ("C=CCOC(=O)CN1C(=O)CSC1=Nc1cc(-n2c(=O)cc(C(F)(F)F)n(C)c2=O)c(F)cc1Cl [Compound 106]", "CYPSE (Flatsedge)", 0.0),
]

Now let's try a different one.
Entry under test: C=CCN1C(=O)C(CC(=O)NOC)SC1=Nc1cc(-n2c(=O)cc(C(F)(F)F)n(C)c2=O)c(F)cc1Cl (stereo not drawn) [Compound 85] . Its CYPSE herbicidal effect rating was 0.0

###

# System: SETVI (Foxtail, Green)
# assayNotes: Postemergence herbicidal evaluation
# Assay type: in vivo, Setaria viridis
# experimentalContext: postemergence, rate 0.0156 kg/ha
attributeMeasured: herbicidal rating SETVI

Past entries and their recorded results:
# compound, herbicidal rating SETVI
measured = [
    ("Cn1c(C(F)(F)F)cc(=O)n(-c2cc(N=C3SCC(=O)N3C3CC3)c(Cl)cc2F)c1=O", 0.0),
    ("CSCCN1C(=O)CSC1=Nc1cc(-n2c(=O)cc(C(F)(F)F)n(C)c2=O)c(F)cc1Cl", 0.0),
    ("COc1ccc(CN2C(=O)CSC2=Nc2cc(-n3c(=O)cc(C(F)(F)F)n(C)c3=O)c(F)cc2Cl)c(OC)c1", 2.0),
    ("COc1ccc(CN2C(=O)CSC2=Nc2cc(-n3c(=O)cc(C(F)(F)F)n(C)c3=O)c(F)cc2Cl)cc1OC", 0.0),
    ("COc1cccc(CN2C(=O)CSC2=Nc2cc(-n3c(=O)cc(C(F)(F)F)n(C)c3=O)c(F)cc2Cl)c1", 1.0),
    ("CCOC(=O)CN1C(=O)C(Cl)SC1=Nc1cc(-n2c(=O)cc(C(F)(F)F)n(C)c2=O)c(F)cc1Cl (centres unmarked)", 0.0),
]

Entry under test: CCOC(=O)CN1C(=O)C(SC)SC1=Nc1cc(-n2c(=O)cc(C(F)(F)F)n(C)c2=O)c(F)cc1Cl (centres unmarked) . Its herbicidal rating SETVI was 2.0

Entry under test: Cn1c(C(F)(F)F)cc(=O)n(-c2cc(N=C3SCC(=O)N3CC(=O)OCC3CC3)c(Cl)cc2F)c1=O . Its herbicidal rating SETVI was 3.0

###

# Preemergence herbicidal rating GLXMAW per record follows
# Test system: GLXMAW (Soybean, Williams)
# assayNotes: Preemergence herbicidal evaluation
# Type: in vivo, Glycine max, (L.) Merr. cv Williams
# experimentalContext: rate 0.0313 kg/ha; rated 4-5 weeks after treatment
// no unit string in output, number only

# compound, attributeMeasured, measuredResult
records = [
    ("CCOC(=O)CN1C(=O)C(CC(=O)OC(C)C)SC1=Nc1cc(-n2c(=O)cc(C(F)(F)F)n(C)c2=O)c(F)cc1Cl (stereo not shown) [Compound 60]", "Preemergence herbicidal rating GLXMAW", 0.5),
    ("CCOC(=O)CN1C(=O)C(CC(=O)O)SC1=Nc1cc(-n2nc(C)n(C(F)F)c2=O)c(F)cc1Cl (stereo not shown) [Compound 112]", "Preemergence herbicidal rating GLXMAW", 0.0),
    ("O=C(O)CC1SC(=Nc2cc(N3C(=O)C4=C(CCCC4)C3=O)c(F)cc2Cl)N(CC(=O)O)C1=O (stereo not shown) [Compound 48]", "Preemergence herbicidal rating GLXMAW", 0.0),
    ("COC(=O)[C@H](Cc1ccc([N+](=O)[O-])cc1)N1C(=O)CSC1=Nc1cc(-n2c(=O)cc(C(F)(F)F)n(C)c2=O)c(F)cc1Cl [Compound 78]", "Preemergence herbicidal rating GLXMAW", 0.0),
    ("CCOC(=O)[C@H](C)N1C(=O)CSC1=Nc1cc(-n2c(=O)cc(C(F)(F)F)n(C)c2=O)c(F)cc1Cl [Compound 76]", "Preemergence herbicidal rating GLXMAW", 0.0),
]

Entry under test: CCCCOC(=O)CN1C(=O)CSC1=Nc1cc(-n2c(=O)cc(C(F)(F)F)n(C)c2=O)c(F)cc1Cl [Compound 111] . Its Preemergence herbicidal rating GLXMAW was 1.0

Entry under test: C=CCN1C(=O)C(CC(=O)Nc2ccccc2)SC1=Nc1cc(-n2c(=O)cc(C(F)(F)F)n(C)c2=O)c(F)cc1Cl (stereo not shown) [Compound 44] . Its Preemergence herbicidal rating GLXMAW was 0.0

Entry under test: CCOC(=O)CN1C(=O)C(CC(=O)OCc2ccccc2)OC1=Nc1cc(-n2c(=O)cc(C(F)(F)F)n(C)c2=O)c(F)cc1Cl (stereo not shown) [Compound 40] . Its Preemergence herbicidal rating GLXMAW was 0.0

Entry under test: CCOC(=O)CN1C(=O)C(CC(=O)NS(=O)(=O)C(C)C)SC1=Nc1cc(-n2c(=O)cc(C(F)(F)F)n(C)c2=O)c(F)cc1Cl (stereo not shown) [Compound 117] . Its Preemergence herbicidal rating GLXMAW was 0.0

Entry under test: Cn1c(C(F)(F)F)cc(=O)n(-c2cc(N=C3SCC(=O)N3CC(=O)OCC#N)c(Cl)cc2F)c1=O [Compound 109] . Its Preemergence herbicidal rating GLXMAW was 2.0

###

# Tested on: ECHORC (Watergrass (Calif.))
# assayNotes: Preemergence weed control under flooded paddy conditions
# Format: in vivo, Echinochloa oryzoides
# experimentalContext: 0.0625 kg/ha, rated 3-4 weeks after treatment
attributeMeasured: ECHORC herbicidal effect rating
// no unit string in output, number only

Past entries and their recorded results:
# compound, ECHORC herbicidal effect rating
measured = [
    ("CCCCOC(=O)CN1C(=O)CSC1=Nc1cc(-n2c(=O)cc(C(F)(F)F)n(C)c2=O)c(F)cc1Cl [Compound 111]", 3.0),
    ("C=CCN1C(=O)C(CC(N)=O)SC1=Nc1cc(-n2c(=O)cc(C(F)(F)F)n(C)c2=O)c(F)cc1Cl (stereo not shown) [Compound 99]", 0.0),
    ("C#CCOC(=O)CC1SC(=Nc2cc(-n3c(=O)cc(C(F)(F)F)n(C)c3=O)c(F)cc2Cl)N(CC(=O)OCC)C1=O (stereo not shown) [Compound 59]", 4.0),
]

Now let's try a different one.
Record for CN1C(=O)C(CC(N)=O)SC1=Nc1cc(-n2c(=O)cc(C(F)(F)F)n(C)c2=O)c(F)cc1Cl (stereo not shown) [Compound 92] under target or system ECHORC (Watergrass (Calif.)): ECHORC herbicidal effect rating reported as 0.0
